Tested on: PC-3 prostate
Method: NCI-60 one-dose screen, 48 h (100 = growth as untreated, 0 = no growth, -100 = all killed)
Condition Info: 10 µM unless noted
The panel holds about 83,000 compounds, 20% with a hit somewhere; the sample as a whole holds those more often.
Reported growth by item:
Write the value in % as a bare number.

>>> val("COc1cc2c(cc1-c1c(C)noc1C)ncc1nc(C3CCOCC3)n([C@H](C)COC(F)F)c12")
34.3
>>> val("CSc1ccc(-c2n[nH]nc2-c2cc3ccccc3s2)cc1")
56.7
>>> val("Clc1ccc2nc3nc4ccc[nH]c4cc3c2c1")
75.1
>>> val("Cc1ncc(C(=O)Nc2ccc(CN3CCN(C)CC3)c(C(F)(F)F)c2)cc1C#Cc1cnc2cccnn12")
5.7

Exercise: # growth lookup, item c1ccc(Cn2cc(-c3nc4ccccc4s3)c3cccnc32)cc1
Key: 97

Exercise: # growth lookup, item COc1ccc(CN2c3ccccc3Oc3ccccc32)cc1F
Key: 64.8

Exercise: # growth lookup, item COc1ccc(CCNc2nc(SC)nc(-c3cccc([N+](=O)[O-])c3)c2C#N)cc1OC
Key: 75.2

Exercise: # growth lookup, item CN1CCN(CCCOc2cccc3nc(Nc4ccc(Cl)c(F)c4)ccc23)CC1
Key: 39

Exercise: # growth lookup, item OCCN1CCN(c2nc(Nc3ccc(-c4nc5ccccc5[nH]4)cc3)c3cn[nH]c3n2)CC1
Key: -76.1

Exercise: # growth lookup, item COc1cccc(-c2nn(C(C)(C)C)cc2-c2ccnc(NCCCNS(=O)(=O)c3cccc4ccccc34)c2)c1
Key: 106

The reported measurements were obtained from PubChem BioAssay (NCI).
